The origin of these recorded values is paper PMC6368478.

# Target: Sts-1HP (Homo sapiens, UniProt Q8TF42)
# Sequence (Q8TF42 384-647 limits assumed): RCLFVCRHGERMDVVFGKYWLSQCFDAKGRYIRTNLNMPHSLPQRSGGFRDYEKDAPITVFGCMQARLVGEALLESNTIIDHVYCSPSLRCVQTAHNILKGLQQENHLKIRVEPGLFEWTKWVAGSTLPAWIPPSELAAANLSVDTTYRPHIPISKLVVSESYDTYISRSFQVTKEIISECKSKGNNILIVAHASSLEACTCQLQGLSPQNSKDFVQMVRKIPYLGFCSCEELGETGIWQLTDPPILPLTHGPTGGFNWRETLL
# Assay details: OMFP fluorescence phosphatase assay, 1,536-well HTS
# Type: biochemical
# Experimental conditions: LOPAC pilot screen, 5.8 μM nominal concentration, triplicate, OMFP substrate
Would you kindly list Averaged Max. Response (%) for each of these molecules?
One number for each entry, in %.

>>> recorded_value("CN(C)c1ccc(O)c2c1C[C@H]1C[C@H]3[C@H](N(C)C)C(O)=C(C(N)=O)C(=O)[C@@]3(O)C(O)=C1C2=O [Minocycline]")
32.59

Batch request: Averaged Max. Response (%) per item, same order as input.
1. O=C(O)C1=CC(=C(c2ccc(O)c(C(=O)O)c2)c2ccc(O)c(C(=O)O)c2)C=CC1=O [Aurintricarboxylic Acid]
2. CN(N=O)c1cc(O)ccc1O [Dephostatin]
3. NC(Cc1cc(O)c(O)cc1O)C(=O)O (racemic) [6-Hydroxy-DL-DOPA]

1. 89.95
2. 43.47
3. 64.86
